The entries below come with measured growth values attached.
# System: SN12C renal
# ASSAY_DETAILS: NCI-60 one-dose screen, 48 h (100 = growth as untreated, 0 = no growth, -100 = all killed)
# REPORTED_CONDITIONS: 10 µM unless noted
This is part of a sample that, as a whole, favours compounds with a hit. Of some 83,000 tested, about 20% had one in any assay.
MEASUREMENT_TYPE: growth (%)

COMPOUND: C=CCn1c(SCC(=O)Nc2ccc(C(=O)/C=C/c3ccc(OC)cc3)cc2)nnc1-c1ccccc1
READING: 89.2

COMPOUND: OC(c1ccccc1)(c1ccccc1)c1ccccc1-c1ccccc1
READING: 89

COMPOUND: O=C(O)C1CN(c2cccc(Cl)c2)N(c2cccc(Cl)c2)C1=O (stereo not given)
READING: 89

COMPOUND: CCN(CC)CCOc1nc2c3ccc(Cl)cc3nn2c2ccccc12
READING: 19.9

COMPOUND: N=c1c2c(=N)n3c(nc2nc2n1-c1ccccc1Sc1ccccc1-2)sc1cc(Cl)ccc13
READING: 25

COMPOUND: COc1ccc2c(O)c(/C=C3\N=Nc4ccccc43)oc2c1C[C@H]1CCNC[C@H]1F
READING: 45.2

COMPOUND: CCN(CC)CCN(CCN(CC)CC)c1ccccc1
READING: 78.5

COMPOUND: Cc1nn(-c2ccccc2)c(/N=C/N(C)C)c1/C=C/C(=O)c1ccc(Cl)cc1
READING: 82.5

COMPOUND: O=C(Nc1ccccc1)c1sc(-c2ccccc2)cc1O
READING: 105

COMPOUND: N#Cc1nc2c(S(=O)(=O)c3ccccc3)c(N)n(Cc3cccnc3)c2nc1C#N
READING: 138

COMPOUND: CC(=O)Nc1c(Cl)cc(Cl)c2c1Cc1cc([N+](=O)[O-])ccc1-2
READING: 80.3

COMPOUND: CC(C)(C)c1cc(C=Nc2cccc(C(F)(F)F)c2)c(O)c(C(C)(C)C)c1
READING: 98.8

COMPOUND: CS(=O)(=O)Nc1cc(-c2ccc3ncnc(Nc4ccc5c(cnn5Cc5cccnc5)c4)c3c2)cnc1Cl
READING: 46.2

COMPOUND: O=C1/C(=C/c2ccc(Br)cc2)COc2ccc(O)c(O)c21
READING: -41.1

COMPOUND: Cc1cc(C(=O)Nc2cc(Nc3ncccc3-c3ncnc4nc[nH]c34)ccc2F)cc(C(F)(F)F)c1
READING: 55.7

====

# Tested on: MALME-3M melanoma
# ASSAY_DETAILS: NCI-60 one-dose screen, 48 h (100 = growth as untreated, 0 = no growth, -100 = all killed)
# REPORTED_CONDITIONS: 10 µM unless noted
The panel holds about 83,000 compounds, 20% with a hit somewhere; the sample as a whole holds those more often.
MEASUREMENT_TYPE: growth (%)

SMILES_CODE: CCCCCCCC/C=C\CCCCCCCCOc1ccc(CC(=O)NCC[N+](C)(C)C)cc1
READING: 70.2

SMILES_CODE: Nc1c(C(=O)Nc2ccncc2)sc2nc3c(cc12)CCCCC3
READING: 90.6

SMILES_CODE: COc1cc2ncnc(Nc3ccc(F)c(Cl)c3)c2cc1OCC(=O)N1CCN(c2ccc(F)cc2)CC1
READING: 92.2

SMILES_CODE: COc1ccc(-c2cn(-c3ccc(Cl)cc3)c(SCC(=O)c3ccc([N+](=O)[O-])cc3)n2)cc1
READING: 87.9

====

# System: MCF7 breast
# ASSAY_DETAILS: NCI-60 one-dose screen, 48 h
# REPORTED_CONDITIONS: 10 µM unless noted
This is part of a sample that, as a whole, favours compounds with a hit. Of some 83,000 tested, about 20% had one in any assay. The source made the active and inactive calls. The calls were made as follows: active = growth percent below 10; inactive = the rest.
Classes used: True = active, False = inactive

SMILES_CODE: Fc1ccc(CNc2c3ccccc3nc3ccccc23)cc1
DISCRETE_LABEL: True
//
SMILES_CODE: COc1ccc(NC(=O)c2ccc(C(=O)Nc3ccc(OC)cc3OC)cc2)c(OC)c1
DISCRETE_LABEL: False
//
SMILES_CODE: CCOC(=O)C1=C(C)N=C2SC=C(c3ccccc3)N2[C@H]1c1cn[nH]c1-c1ccc(Cl)cc1
DISCRETE_LABEL: False
//
SMILES_CODE: Oc1c(I)cc(-c2nc3ccccc3s2)cc1CN(Cc1ccccn1)Cc1ccccn1
DISCRETE_LABEL: False

====

# Test system: HCT-116 colon
# ASSAY_DETAILS: NCI-60 one-dose screen, 48 h (100 = growth as untreated, 0 = no growth, -100 = all killed)
# REPORTED_CONDITIONS: 10 µM unless noted
The panel holds about 83,000 compounds, 20% with a hit somewhere; the sample as a whole holds those more often.

SMILES_CODE: Cc1cc2oc(=O)cc(CP(=O)(O)O)c2cc1O
MEASUREMENT_UNITS: %
growth: 100
//
SMILES_CODE: CC[C@H](Nc1nc(N)nc(C)c1C#N)c1nc2cccc(NCCCCCC(=O)NO)c2c(=O)n1-c1ccccc1
MEASUREMENT_UNITS: %
growth: 71.3
//
SMILES_CODE: Cn1cc(-c2csc(-c3cn(C)c4ccc(Br)cc34)n2)c2cnccc21
MEASUREMENT_UNITS: %
growth: -89.8
//
SMILES_CODE: O=C(CSc1nc2ccc([N+](=O)[O-])cc2[nH]1)Nc1cccc([N+](=O)[O-])c1
MEASUREMENT_UNITS: %
growth: 33.6

====

# Test system: PC-3 prostate
# ASSAY_DETAILS: NCI-60 one-dose screen, 48 h
# REPORTED_CONDITIONS: 10 µM unless noted
The panel holds about 83,000 compounds, 20% with a hit somewhere; the sample as a whole holds those more often. Calls of active or inactive are those of the source. How the source made its calls: active means growth percent below 10; inactive means the rest.
Classes used: true (1) = active, false (0) = inactive

SMILES_CODE: O=C1NC(=O)c2c1c1c3ccccc3[nH]c1c1oc3cc(Br)ccc3c21
DISCRETE_LABEL: false (0)
//
SMILES_CODE: C#CCOc1ccc2ncnc(Nc3cccc(NC(=O)CCl)c3)c2c1
DISCRETE_LABEL: false (0)
//
SMILES_CODE: O=C(/C=C/c1cccc(Cl)c1)c1cccc(OCCCCOc2cccc(C(=O)/C=C/c3cccc(Cl)c3)c2)c1
DISCRETE_LABEL: false (0)
//
SMILES_CODE: O=C1/C(=C/c2ccc(C(F)(F)F)cc2)COc2ccc(O)cc21
DISCRETE_LABEL: false (0)
//
SMILES_CODE: CCOC(=O)N1CCN(S(=O)(=O)c2oc(-c3ccc(Cl)cc3)nc2C#N)CC1
DISCRETE_LABEL: false (0)
//
SMILES_CODE: Cn1cc(-c2csc(-c3cn(C)c4ccc(Br)cc34)n2)c2cnccc21
DISCRETE_LABEL: true (1)
